experiment: gradient 5% acetonitrile 3 min, to 50% in 2 min, to 85% in 15 min, held 3 min, 100 µL/min; conditions: column: Zorbax Extend-C18 2.1 x 50 mm; eluents: water / acetonitrile, 0.1% formic acid
outcome_measure: RP-LC retention time (s)
# number only, unit s dropped from output

Worked examples, 5 molecules total:
COc1cc(OC)cc(-c2nnc(Cc3nc(-c4ccccc4)no3)o2)c1 | 1020
Cc1cc(Cl)ccc1NS(=O)(=O)c1cc(-c2cc(C(F)(F)F)on2)sc1C | 1260
CCCCn1c(=O)c2ccccc2n(Cc2nc(-c3ccc(SC)cc3)no2)c1=O | 1250
CCCC(=O)Nc1cc2c(cc1N1CCC(C(=O)OCC)CC1)n(C)c(=O)c(=O)n2C | 804
Cc1nc(-n2cccc2)sc1C(=O)OCc1cc(-c2ccc3c(c2)OCCO3)on1 | 1210

// returns reported RP-LC retention time for input COCC(=O)N1CCOc2ccc(N(C)C)cc2C1
550

Query: RP-LC retention time; subject: CCN1CCCn2cc(S(=O)(=O)NCc3ccccc3C(F)(F)F)cc2C1=O
792

Record request: RP-LC retention time value, item O=C(c1cnccn1)N1CCCn2nc(-c3cccc(Cl)c3)cc2C1
767

So what does the record say about RP-LC retention time for NC(=O)COc1cc(-c2ccccc2)nc2ccc(NC(=O)C3CC3)cc12 ?
610

----------
experiment: gradient 5% acetonitrile 3 min, to 50% in 2 min, to 85% in 15 min, held 3 min, 100 µL/min; settings: column: Zorbax Extend-C18 2.1 x 50 mm; eluents: water / acetonitrile, 0.1% formic acid
Rule: 1.0 for RP-LC retention time not less than 800 s, 0.0 for anything less.

For orientation, consider the following solved cases.
COc1ccc(Cl)cc1NC(=O)c1coc(NC(=O)C2CC2)n1 | 0.0
CCN(CC)CCCNC(=O)C(C)n1c(=O)c(C(F)(F)F)nc2cc(C)c(C)cc21 (centres undefined) | 0.0
O=C(c1ccoc1)N1CC(Oc2ccc(-c3nc(-c4ccccc4)no3)cc2)C1 | 1.0
COc1ccc(Nc2c(C(=O)N3CCCCC3)cnc3nc(C)ccc23)cc1 | 0.0
COc1ccc(NS(=O)(=O)c2cc3c(s2)CCN(C(=O)C2CC2)C3)cc1Cl | 1.0
Cc1ccccc1NC(=O)c1cc(C)n2nc(-c3ccsc3)cc2n1 | 1.0

Tell me whether RP-LC retention time is at least 800 s here: N#Cc1cccc(-c2nc(-c3ccc4c(c3)ncn4CCN3CCCCC3)no2)c1
0.0

Hi, just wondering whether CS(=O)(=O)N1CCC(C(=O)NCc2ccco2)Oc2ccc(Cl)cc21 (centres undefined) shows RP-LC retention time of 800 s or higher.
1.0

----------
experiment: gradient 5% acetonitrile 3 min, to 50% in 2 min, to 85% in 15 min, held 3 min, 100 µL/min; conditions: column: Zorbax Extend-C18 2.1 x 50 mm; eluents: water / acetonitrile, 0.1% formic acid
outcome_measure: RP-LC retention time (s)
Kindly provide the numeric value in s only, without the unit symbol.

Cc1ccc(-c2cn3c(C(=O)Nc4nc(C)cs4)csc3n2)cc1 | 848
CCNC(=O)C1CCCN(c2nc3ncn(CC(=O)Nc4ccccc4)c(=O)c3s2)C1 (stereo not given) | 644
C(=N\n1cnnc1)/c1ccc2c(c1)CCC2 | 858
O=C(CN1C(=O)C(C(=O)N2CCCCCC2)Sc2ccccc21)N1CCN(c2ccccc2)CC1 (stereo not given) | 663

The record that follows has no RP-LC retention time shown yet.
I have this molecule here, CCCCC(=O)Nc1cnc(N2CCNCC2)c(C(=O)N2CCCC2)c1 , and I need its recorded RP-LC retention time.
595

----------
assay: gradient 5% acetonitrile 3 min, to 50% in 2 min, to 85% in 15 min, held 3 min, 100 µL/min; details: column: Zorbax Extend-C18 2.1 x 50 mm; eluents: water / acetonitrile, 0.1% formic acid
Below, each of the compounds is paired with its reported RP-LC retention time value.

Field: example entries. Status: answers known.
COc1cn(CC(=O)Nc2cccc([N+](=O)[O-])c2)c(CN2CCC(C)CC2)cc1=O | 567 s
Cc1ccc(F)c(NS(=O)(=O)c2cc(-c3[nH]ncc3C(=O)N(C)C)oc2C)c1 | 676 s
Cc1cc2n(n1)CCCN2C(=O)CCC(=O)NCc1ccc(N(C)C)cc1 | 609 s
COc1cccc(OC)c1C(=O)N1CCCC1c1cc(C(C)C)on1 (centres undefined) | 794 s

Proceed to the following item.
Could you share which RP-LC retention time value was measured for COc1cccc(N2CCN(c3ccnc(SCC(=O)Nc4cccc(Cl)c4)n3)CC2)c1 ?
827 s

----------
experiment: gradient 5% acetonitrile 3 min, to 50% in 2 min, to 85% in 15 min, held 3 min, 100 µL/min; settings: column: Zorbax Extend-C18 2.1 x 50 mm; eluents: water / acetonitrile, 0.1% formic acid
outcome_measure: RP-LC retention time (s)
Report the value in s with no unit label.

Cc1cccc(OCc2ccc(-c3nc(C#N)c(NCCCN(C)C)o3)o2)c1 | 728
O=C(CCC(=O)N1CC2CCCN2c2ccccc21)NCc1cccs1 (centres undefined) | 865
CCN1C(=O)COc2ccc(-c3nc(NC(=O)CCc4ccccc4)sc3C)cc21 | 1040

Fill in the blank: the reported RP-LC retention time of CN1CCCc2cc(C(CNC(=O)C(=O)NCc3ccc(F)cc3)N3CCOCC3)ccc21 (centres undefined) is ____.
569

Which value of RP-LC retention time has been reported for COC(=O)c1ccccc1Nc1c(-c2cccc(Br)c2)nc2cnccn12 in the records?
1090

# RP-LC retention time lookup, item CCn1c(=O)c(N2CCCC(C(=O)NC3CCN(Cc4ccccc4)CC3)C2)nc2ccccc21 (centres undefined)
685

----------
test: gradient 5% acetonitrile 3 min, to 50% in 2 min, to 85% in 15 min, held 3 min, 100 µL/min; conditions: column: Zorbax Extend-C18 2.1 x 50 mm; eluents: water / acetonitrile, 0.1% formic acid
Categorize each record by its RP-LC retention time using low group: < 700 s; middle group: ≥ 700 s and < 800 s; high group: ≥ 800 s

Given Cc1nccn1C1CN(C(=O)CCCc2c[nH]c3ccccc23)C1 , name the class its RP-LC retention time places it in.
low group

Which category fits this record: Cn1cc(CCN2CCC(C(=O)NCc3ccc(F)cc3Cl)CC2)c2cccnc21
low group

Which class holds Cc1nc(-c2cn(C)c3ncccc23)sc1C(=O)Nc1ccc(Cl)cc1F ?
high group

Please report the category associated with Fc1cccc(CN2CCC(N3CC(OCC4CC4)C34CCCCC4)CC2)c1 (stereo not given) , nothing else.
low group

Input COc1cccc(CCc2nc(-c3ccc4oc(C)nc4c3)no2)c1 ; output its category
high group

Into which bin does this compound go? CCc1cccc(NS(=O)(=O)c2cc(-c3c(CC)noc3NC(C)=O)ccc2C)c1
high group

For Cc1ccccc1-n1c(=O)c2sccc2n(Cc2nc(-c3ccccc3)no2)c1=O , which RP-LC retention time bin applies?
high group

----------
assay: gradient 5% acetonitrile 3 min, to 50% in 2 min, to 85% in 15 min, held 3 min, 100 µL/min; conditions: column: Zorbax Extend-C18 2.1 x 50 mm; eluents: water / acetonitrile, 0.1% formic acid
outcome_measure: RP-LC retention time (s)
The answer is to be given in s; state only the numeric part.

Consider the reported RP-LC retention time for these compounds:
Cc1ccc(-c2cn3c(n2)N(C(=O)c2cnn4cccnc24)CCC3)cc1 | 613
Cc1c(Cl)cccc1S(=O)(=O)NC1CCN(c2ccccc2)C1=O (centres undefined) | 970
O=C(Cn1ccc2c(SCc3ccc(F)cc3)nccc21)N1CCN(c2ccccc2)CC1 | 782
N#CCn1cccc1-c1nc(-c2cccnc2)no1 | 776
CCCCN(C)CCCNC(=O)c1ccc2c(c1)NC(=O)C(C(C)CC)N2 (centres undefined) | 612
O=S(=O)(c1cc(F)cc(F)c1)N1CCCC(Cn2c(C3CC3)nc3cccnc32)C1 (centres undefined) | 806
O=C(N1CCC(Cc2noc(-c3ccc(F)cc3)n2)C1)C1(c2ccccc2)CC1 (centres undefined) | 1010
COCC(=O)N1CCC2(CC1)NCc1ccccc1-n1ccnc12 | 548
CCN1CCN(C(=O)Cc2c(C)nc3nc(-c4ccc(C(C)(C)C)cc4)nn3c2C)CC1 | 673
Cc1ccc(NC(=O)N2CCN(c3cnn4cnnc4c3)CC2)cc1 | 627

Would you mind telling me what RP-LC retention time value was observed for O=C(Cn1cnc(-c2ccc(Cl)cc2)cc1=O)NCc1ccccc1OC(F)(F)F ?
910

Tell me the measured RP-LC retention time of N#Cc1ccc(CN2C[C@@H](CO)[C@H](c3ccccn3)C2)cc1 , please.
569

Dear colleague, I am looking for the recorded RP-LC retention time of the following compound: CCOc1ccc(N2C=C(C(=O)OC)S(=O)(=O)c3ccccc32)cc1
887

Which value of RP-LC retention time has been reported for Cc1cc(C)c2c(N3CCOCC3)nc(C(=O)NCCC(C)C)nc2n1 in the records?
648

Reference for the values: the METLIN SMRT retention time set (Domingo-Almenara et al. 2019)
